meta.source: ChEMBL document CHEMBL3580579

test: Antioxidant activity assessed as DPPH radical-scavenging activity incubated for 30 mins by spectrophotometry; type: physicochemical
measure: IC50

# query: IC50 of entry `O=C1O[C@@H]2O[C@@H]3COC(=O)c4cc(O)c(O)c(O)c4-c4c(cc(O)c(O)c4O)C(=O)O[C@H]3[C@H](OC(=O)c3cc(O)c(O)c(O)c3)[C@H]2OC(=O)c2cc(Oc3c(C(=O)O[C@H]4[C@H](OC(=O)c5cc(O)c(O)c(O)c5)O[C@H](CO)[C@@H](O)[C@@H]4OC(=O)c4cc(O)c(O)c(O)c4)cc(O)c(O)c3O)c(O)c(O)c2Oc2cc1cc(O)c2O` 4.44 µM

# query: IC50 of entry O=C(O[C@@H]1O[C@@H]2COC(=O)c3cc(O)c(O)c(O)c3-c3c(cc(O)c(O)c3O)C(=O)O[C@H]2[C@H](OC(=O)c2cc(O)c(O)c(O)c2)[C@H]1OC(=O)c1cc(O)c(O)c(O)c1Oc1cc2c(c(O)c1O)Oc1cc(cc(O)c1O)C(=O)O[C@@H]1O[C@@H]3COC(=O)c4cc(O)c(O)c(O)c4-c4c(cc(O)c(O)c4O)C(=O)O[C@H]3[C@H](OC(=O)c3cc(O)c(O)c(O)c3)[C@H]1OC2=O)c1cc(O)c(O)c(O)c1 [HIRTELLIN B] 4.1 µM

# query: IC50 of entry `COc1cc(C(=O)O[C@@H]2[C@@H](OC(=O)c3cc(OC)c(OC)c(OC)c3Oc3cc4c(c(OC)c3OC)Oc3cc(cc(OC)c3OC)C(=O)O[C@@H]3O[C@@H]5COC(=O)c6cc(OC)c(OC)c(OC)c6-c6c(cc(OC)c(OC)c6OC)C(=O)O[C@H]5[C@H](OC(=O)c5cc(OC)c(OC)c(OC)c5)[C@H]3OC4=O)[C@H](OC)O[C@@H]3COC(=O)c4cc(OC)c(OC)c(OC)c4-c4c(cc(OC)c(OC)c4OC)C(=O)O[C@@H]23)cc(OC)c1OC` > 100 µM

# query: IC50 of entry O=C1O[C@@H]2O[C@H](CO)[C@@H](O)[C@H](OC(=O)c3cc(O)c(O)c(O)c3)[C@H]2OC(=O)c2cc(Oc3c(C(=O)O[C@H]4C(O)O[C@@H]5COC(=O)c6cc(O)c(O)c(O)c6-c6c(cc(O)c(O)c6O)C(=O)O[C@H]5[C@@H]4OC(=O)c4cc(O)c(O)c(O)c4)cc(O)c(O)c3O)c(O)c(O)c2Oc2cc1cc(O)c2O (some centres undefined) 2.4 µM

----------
experiment: Antioxidant activity assessed as DPPH radical-scavenging activity incubated for 30 mins by spectrophotometry; format: physicochemical
measure: pIC50
A value of pIC50 is the negative decimal logarithm of a concentration given in moles per litre.

# query: pIC50 of entry Cc1cc(C(C)(C)C)c(O)c(C(C)(C)C)c1 [BUTYLATED HYDROXYTOLUENE] 5.15

----------
Would you mind telling me the reported IC50 of each entry?
experiment: Antioxidant activity assessed as DPPH radical-scavenging activity incubated for 30 mins by spectrophotometry; assay type: physicochemical
# number only, unit µM dropped from output

# query: IC50 of entry O=C1O[C@@H]2O[C@@H]3COC(=O)c4cc(O)c(O)c(O)c4-c4c(cc(O)c(O)c4O)C(=O)O[C@H]3[C@H](OC(=O)c3cc(O)c(O)c(O)c3)[C@H]2OC(=O)c2cc(Oc3c(C(=O)O)cc(O)c(O)c3O)c(O)c(O)c2Oc2cc1cc(O)c2O [NILOTININ M4] 3.16

# query: IC50 of entry O=C(O[C@@H]1O[C@@H]2COC(=O)c3cc(O)c(O)c(O)c3-c3c(cc(O)c(O)c3O)C(=O)O[C@H]2[C@H](OC(=O)c2cc(O)c(O)c(O)c2)[C@H]1OC(=O)c1cc(O)c(O)c(O)c1-c1c(C(=O)O[C@@H]2O[C@@H]3COC(=O)c4cc(O)c(O)c(O)c4-c4c(cc(O)c(O)c4O)C(=O)O[C@H]3[C@H](OC(=O)c3cc(O)c(O)c(O)c3)[C@H]2OC(=O)c2cc(O)c(O)c(O)c2)cc(O)c(O)c1O)c1cc(O)c(O)c(O)c1 [HIRTELLIN A] 4.61

# query: IC50 of entry O=C(O[C@@H]1O[C@@H]2COC(=O)c3cc(O)c(O)c(O)c3-c3c(cc(O)c(O)c3O)C(=O)O[C@H]2[C@H](OC(=O)c2cc(O)c(O)c(O)c2)[C@H]1OC(=O)c1cc(O)c(O)c(O)c1Oc1cc2c(c(O)c1O)Oc1cc(cc(O)c1O)C(=O)O[C@@H]1O[C@H](CO)[C@@H](O)[C@H](OC(=O)c3cc(O)c(O)c(O)c3)[C@H]1OC2=O)c1cc(O)c(O)c(O)c1 [NILOTININ D8] 4.67

# query: IC50 of entry O=C1O[C@@H]2O[C@@H]3COC(=O)c4cc(O)c(O)c(O)c4-c4c(cc(O)c(O)c4O)C(=O)O[C@H]3[C@H](OC(=O)c3cc(O)c(O)c(O)c3)[C@H]2OC(=O)c2cc(Oc3c(C(=O)O[C@H]4C(O)O[C@H](CO)[C@@H](O)[C@@H]4OC(=O)c4cc(O)c(O)c(O)c4)cc(O)c(O)c3O)c(O)c(O)c2Oc2cc1cc(O)c2O (stereo partly specified) 4.73

# query: IC50 of entry Cc1c(C)c2c(c(C)c1O)CCC(C)(C(=O)O)O2 (stereo unspecified) [TROLOX] 8

# query: IC50 of entry `O=C1O[C@@H]2O[C@@H]3COC(=O)c4cc(O)c(O)c(O)c4-c4c(cc(O)c(O)c4O)C(=O)O[C@H]3[C@H](OC(=O)c3cc(O)c(O)c(O)c3)[C@H]2OC(=O)c2cc(O)c(O)c(O)c2Oc2cc(cc(O)c2O)C(=O)O[C@@H]2O[C@@H]3COC(=O)c4cc(O)c(O)c(O)c4-c4c(cc(O)c(O)c4O)C(=O)O[C@H]3[C@H](OC(=O)c3cc(O)c(O)c(O)c3)[C@H]2OC(=O)c2cc(O)c(O)c(O)c2Oc2cc1cc(O)c2O` 4.43

----------
assay: Antioxidant activity assessed as DPPH radical-scavenging activity incubated for 30 mins by spectrophotometry; format: physicochemical
Would you mind telling me the reported IC50 of each entry?
# number only, unit µM dropped from output

# query: IC50 of entry O=C(O)c1cc(O)c(O)c(O)c1 [GALLIC ACID] 7.23

# query: IC50 of entry O=C1O[C@@H]2O[C@@H]3COC(=O)c4cc(O)c(O)c(O)c4-c4c(cc(O)c(O)c4O)C(=O)O[C@H]3[C@H](OC(=O)c3cc(O)c(O)c(O)c3)[C@H]2OC(=O)c2cc(Oc3c(C(=O)O[C@@H]4[C@@H](OC(=O)c5cc(O)c(O)c(O)c5)[C@@H]5OC(=O)c6cc(O)c(O)c(O)c6-c6c(cc(O)c(O)c6O)C(=O)OC[C@H]5O[C@H]4O)cc(O)c(O)c3O)c(O)c(O)c2Oc2cc1cc(O)c2O [TAMARIXININ A] 3.57

----------
experiment: Antioxidant activity assessed as hydroxy radical-scavenging activity; format: physicochemical
measure: IC50 (µM)
# number only, unit µM dropped from output

# query: IC50 of entry `O=C1O[C@@H]2O[C@@H]3COC(=O)c4cc(O)c(O)c(O)c4-c4c(cc(O)c(O)c4O)C(=O)O[C@H]3[C@H](OC(=O)c3cc(O)c(O)c(O)c3)[C@H]2OC(=O)c2cc(O)c(O)c(O)c2Oc2cc(cc(O)c2O)C(=O)O[C@@H]2O[C@@H]3COC(=O)c4cc(O)c(O)c(O)c4-c4c(cc(O)c(O)c4O)C(=O)O[C@H]3[C@H](OC(=O)c3cc(O)c(O)c(O)c3)[C@H]2OC(=O)c2cc(O)c(O)c(O)c2Oc2cc1cc(O)c2O` 42.9

# query: IC50 of entry `O=C(O[C@@H]1O[C@@H]2COC(=O)c3cc(O)c(O)c(O)c3-c3c(cc(O)c(O)c3O)C(=O)O[C@H]2[C@H](OC(=O)c2cc(O)c(O)c(O)c2)[C@H]1OC(=O)c1cc(O)c(O)c(O)c1Oc1cc2c(c(O)c1O)Oc1cc(cc(O)c1O)C(=O)O[C@@H]1O[C@@H]3COC(=O)c4cc(O)c(O)c(O)c4-c4c(cc(O)c(O)c4O)C(=O)O[C@H]3[C@H](OC(=O)c3cc(O)c(O)c(O)c3)[C@H]1OC2=O)c1cc(O)c(O)c(O)c1` 39.7

# query: IC50 of entry `O=C(O)c1cc(O)c(O)c(O)c1` 15.7

# query: IC50 of entry `O=C(O[C@@H]1O[C@@H]2COC(=O)c3cc(O)c(O)c(O)c3-c3c(cc(O)c(O)c3O)C(=O)O[C@H]2[C@H](OC(=O)c2cc(O)c(O)c(O)c2)[C@H]1OC(=O)c1cc(O)c(O)c(O)c1Oc1cc2c(c(O)c1O)Oc1cc(cc(O)c1O)C(=O)O[C@@H]1O[C@H](CO)[C@@H](O)[C@H](OC(=O)c3cc(O)c(O)c(O)c3)[C@H]1OC2=O)c1cc(O)c(O)c(O)c1` 32.5

# query: IC50 of entry `O=C1O[C@@H]2O[C@@H]3COC(=O)c4cc(O)c(O)c(O)c4-c4c(cc(O)c(O)c4O)C(=O)O[C@H]3[C@H](OC(=O)c3cc(O)c(O)c(O)c3)[C@H]2OC(=O)c2cc(Oc3c(C(=O)O[C@@H]4[C@@H](OC(=O)c5cc(O)c(O)c(O)c5)[C@@H]5OC(=O)c6cc(O)c(O)c(O)c6-c6c(cc(O)c(O)c6O)C(=O)OC[C@H]5O[C@H]4O)cc(O)c(O)c3O)c(O)c(O)c2Oc2cc1cc(O)c2O` 41.5

# query: IC50 of entry `O=C1O[C@@H]2O[C@@H]3COC(=O)c4cc(O)c(O)c(O)c4-c4c(cc(O)c(O)c4O)C(=O)O[C@H]3[C@H](OC(=O)c3cc(O)c(O)c(O)c3)[C@H]2OC(=O)c2cc(Oc3c(C(=O)O)cc(O)c(O)c3O)c(O)c(O)c2Oc2cc1cc(O)c2O` 38

# query: IC50 of entry `O=C(O[C@@H]1O[C@@H]2COC(=O)c3cc(O)c(O)c(O)c3-c3c(cc(O)c(O)c3O)C(=O)O[C@H]2[C@H](OC(=O)c2cc(O)c(O)c(O)c2)[C@H]1OC(=O)c1cc(O)c(O)c(O)c1-c1c(C(=O)O[C@@H]2O[C@@H]3COC(=O)c4cc(O)c(O)c(O)c4-c4c(cc(O)c(O)c4O)C(=O)O[C@H]3[C@H](OC(=O)c3cc(O)c(O)c(O)c3)[C@H]2OC(=O)c2cc(O)c(O)c(O)c2)cc(O)c(O)c1O)c1cc(O)c(O)c(O)c1` 38.5

# query: IC50 of entry Cc1c(C)c2c(c(C)c1O)CCC(C)(C(=O)O)O2 (configuration not stated) 76.7

# query: IC50 of entry O=C1O[C@@H]2O[C@@H]3COC(=O)c4cc(O)c(O)c(O)c4-c4c(cc(O)c(O)c4O)C(=O)O[C@H]3[C@H](OC(=O)c3cc(O)c(O)c(O)c3)[C@H]2OC(=O)c2cc(Oc3c(C(=O)O[C@H]4C(O)O[C@H](CO)[C@@H](O)[C@@H]4OC(=O)c4cc(O)c(O)c(O)c4)cc(O)c(O)c3O)c(O)c(O)c2Oc2cc1cc(O)c2O (some centres not stated) 36.8

# query: IC50 of entry Cc1cc(C(C)(C)C)c(O)c(C(C)(C)C)c1 [BUTYLATED HYDROXYTOLUENE] 22.6
